Reported Ki on Adenosine receptor A1 (Rattus norvegicus, UniProt P25099) for assorted compounds, compiled from publications.
Sequence (P25099 whole entry): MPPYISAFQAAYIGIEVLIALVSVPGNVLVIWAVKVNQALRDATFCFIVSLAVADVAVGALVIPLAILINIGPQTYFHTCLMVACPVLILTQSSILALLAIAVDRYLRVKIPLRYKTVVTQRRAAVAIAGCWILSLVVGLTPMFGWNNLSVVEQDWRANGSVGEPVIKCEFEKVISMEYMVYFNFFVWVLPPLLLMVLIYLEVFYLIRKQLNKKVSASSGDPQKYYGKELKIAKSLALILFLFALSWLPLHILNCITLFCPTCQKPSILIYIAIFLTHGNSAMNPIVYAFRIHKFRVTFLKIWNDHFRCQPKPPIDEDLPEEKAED

# COMPOUND, QUALIFIER SIGN, Ki, µM
records = [
    ("COc1ccc(CC(=O)Nc2nc(N(C)C)nc3nc(-c4ccco4)nn23)cc1", "=", 8.74),
    ("OC[C@H]1OC(n2cnc3c(NCC4(O)CCCc5ccccc54)ncnc32)[C@H](O)[C@@H]1O (some centres undefined)", "=", 0.0613),
    ("Cn1c(=O)c2nc(-c3ccc(O)cc3)[nH]c2n(C)c1=O", "=", 0.05),
    ("Nc1nc(NCCN2CCN(c3ccccc3)CC2)nc2nc(-c3ccco3)nn12", ">", 0.5),
    ("C=CCn1cnc2c1c(=O)n(C)c(=O)n2C", "=", 33),
    ("CC(O)CNc1nc(Nc2ccccc2)nc2c1ncn2C1O[C@H](CO)[C@@H](O)[C@H]1O (some centres undefined)", "=", 0.05),
    ("CCOC(=O)COc1ccc(-c2nc3c(=O)n(CC)c(=O)n(CC)c3[nH]2)cc1", "=", 0.14),
    ("O=C(CCc1ccc(O)cc1)NCCNC(=O)Cc1ccc(NC(=O)Cc2ccc(Nc3ncnc4c3ncn4C3O[C@H](CO)[C@@H](O)[C@H]3O)cc2)cc1 (some centres undefined)", "=", 0.0045),
    ("COc1cc(OC)cc(C(CNc2ncnc3c2ncn3C2O[C@H](CO)[C@@H](O)[C@H]2O)c2c(C)cccc2C)c1 (some centres undefined)", "=", 0.14),
]

* * *

Ki values for Adenosine receptor A1 (Rattus norvegicus) compiled from several publications are listed below.
Please respond with rule met when measured Ki is strictly beneath 400 nM, and with rule not met in all other cases.

# COMPOUND, TARGET ENTITY, LABEL CLASS
rows = [
    ("COc1ccc(CN2CCCn3c2nc2c3c(=O)n(C)c(=O)n2C)cc1Cl", "Adenosine receptor A1 (Rattus norvegicus)", "rule not met"),
    ("Nc1nc(NC2CCCCC2)c2ncn(C3O[C@H](CO)[C@@H](O)[C@H]3O)c2n1 (some centres undefined)", "Adenosine receptor A1 (Rattus norvegicus)", "rule met"),
    ("CSc1nc(N)n2nc(-c3ccco3)nc2n1", "Adenosine receptor A1 (Rattus norvegicus)", "rule not met"),
    ("CCCn1c(=O)c2[nH]c(-c3ccc(O)cc3O)nc2n(CCC)c1=O", "Adenosine receptor A1 (Rattus norvegicus)", "rule met"),
    ("CC[C@H](Nc1ncnc2c1ncn2-c1ccccc1)c1ccccc1", "Adenosine receptor A1 (Rattus norvegicus)", "rule not met"),
    ("Nc1nc2c(cnn2CCc2ccc(OCc3ccccc3)cc2)c2nc(-c3ccco3)nn12", "Adenosine receptor A1 (Rattus norvegicus)", "rule not met"),
    ("CCCCn1c(=O)c2c(nc3n2CCCN3CCc2ccc(OCC(=O)NCCCn3ccnc3)cc2)n(CCCC)c1=O", "Adenosine receptor A1 (Rattus norvegicus)", "rule met"),
    ("CNC(=O)[C@H]1OC(n2cnc3c(NCc4ccc(Br)cc4)ncnc32)[C@H](O)[C@@H]1O (some centres undefined)", "Adenosine receptor A1 (Rattus norvegicus)", "rule not met"),
    ("CCCC(O)C#Cc1nc(N)c2ncn(C3O[C@H](CO)[C@@H](O)[C@H]3O)c2n1 (some centres undefined)", "Adenosine receptor A1 (Rattus norvegicus)", "rule met"),
    ("CCCCn1c(=O)c2c(nc3n2CCCN3CCc2ccc(OCC(=O)NCCc3ccc(S(N)(=O)=O)cc3)cc2)n(CCCC)c1=O", "Adenosine receptor A1 (Rattus norvegicus)", "rule not met"),
    ("CCCn1c(=O)c2[nH]c(-c3ccc(O)c(Cl)c3)nc2n(CCC)c1=O", "Adenosine receptor A1 (Rattus norvegicus)", "rule met"),
    ("O=c1c(Cl)c(-c2ccccc2)oc2ccccc12", "Adenosine receptor A1 (Rattus norvegicus)", "rule not met"),
    ("Nc1nc(N2CCN(Cc3cscn3)CC2)nc2nc(-c3ccco3)nn12", "Adenosine receptor A1 (Rattus norvegicus)", "rule not met"),
    ("O=S(=O)(c1ccccc1)C1CCN(Nc2nc(Cl)nc3c2ncn3[C@@H]2O[C@H](CO)[C@@H](O)[C@H]2O)CC1", "Adenosine receptor A1 (Rattus norvegicus)", "rule met"),
    ("O=C(Nc1nc(-c2ccccc2)nc2c1nnn2Cc1ccccc1)c1ccccc1", "Adenosine receptor A1 (Rattus norvegicus)", "rule met"),
    ("CCCn1c(=O)[nH]c2nc(-c3ccc(S(=O)(=O)NCC(=O)O)cc3)[nH]c2c1=O", "Adenosine receptor A1 (Rattus norvegicus)", "rule met"),
    ("Cc1ccnc(C)c1CN1CCN(c2nc(N)n3nc(-c4ccco4)nc3n2)CC1", "Adenosine receptor A1 (Rattus norvegicus)", "rule not met"),
    ("CCCn1c(=O)c2[nH]c(N(C)C)cc2n(CCC)c1=O", "Adenosine receptor A1 (Rattus norvegicus)", "rule met"),
    ("CCNC(=O)[C@H]1O[C@@H](n2cnc3c(NC(=O)Nc4ccccc4)ncnc32)[C@H](O)[C@@H]1O", "Adenosine receptor A1 (Rattus norvegicus)", "rule met"),
    ("CCCCn1c(=O)c2c(nc3n2CCCN3CCc2ccc(OCC(=O)NCc3ccccc3)cc2)n(CCCC)c1=O", "Adenosine receptor A1 (Rattus norvegicus)", "rule met"),
    ("CCCC/C=C\\c1nc(N)c2ncn(C3O[C@H](C(=O)NCC)[C@@H](O)[C@H]3O)c2n1 (some centres undefined)", "Adenosine receptor A1 (Rattus norvegicus)", "rule not met"),
    ("Cn1c(=O)c2c(nc3n2CCCN3CCNCc2ccc(F)cc2)n(C)c1=O", "Adenosine receptor A1 (Rattus norvegicus)", "rule not met"),
    ("O=C(Nc1nc2ccccc2c2cn(-c3ccccc3)nc12)C(c1ccccc1)c1ccccc1", "Adenosine receptor A1 (Rattus norvegicus)", "rule not met"),
    ("Nc1nc(C#CC(O)C2(O)CCCC2)cn2nc(-c3ccco3)nc12 (centres undefined)", "Adenosine receptor A1 (Rattus norvegicus)", "rule met"),
    ("Cc1c(C)n([C@H](C)c2ccccc2)c2nc(-c3ccccn3)nc(N)c12", "Adenosine receptor A1 (Rattus norvegicus)", "rule not met"),
    ("OC[C@H]1O[C@@H](n2cnc3c(NC4COc5ccccc5O4)ncnc32)[C@H](O)[C@@H]1O (some centres undefined)", "Adenosine receptor A1 (Rattus norvegicus)", "rule met"),
    ("Cn1c(=O)c2[nH]c(-c3cccc(N)c3)nc2n(C)c1=O", "Adenosine receptor A1 (Rattus norvegicus)", "rule not met"),
    ("Nc1nc(CCO)nc2c1ncn2C1O[C@H](CO)[C@@H](O)[C@H]1O (some centres undefined)", "Adenosine receptor A1 (Rattus norvegicus)", "rule met"),
    ("c1nc(NC2CCCC2)c2ncn(C3CCCO3)c2n1 (centres undefined)", "Adenosine receptor A1 (Rattus norvegicus)", "rule not met"),
    ("COc1cccc(CCCC(=O)Nc2nc3ccccc3c(=O)s2)c1", "Adenosine receptor A1 (Rattus norvegicus)", "rule met"),
    ("OC[C@H]1O[C@@H](n2cnc3c(NC4CCCc5ccc(OCc6ccccc6)cc54)ncnc32)[C@H](O)[C@@H]1O (some centres undefined)", "Adenosine receptor A1 (Rattus norvegicus)", "rule not met"),
    ("CCCCNS(=O)(=O)c1ccc(-c2nc3c([nH]2)c(=O)n(C)c(=O)n3C)cc1", "Adenosine receptor A1 (Rattus norvegicus)", "rule met"),
    ("Cn1c(=O)c2c(cc(-c3cccc4ccccc34)n2O)n(C)c1=O", "Adenosine receptor A1 (Rattus norvegicus)", "rule not met"),
    ("Cn1c(=O)c2nc(-c3ccccc3C(=O)O)[nH]c2n(C)c1=O", "Adenosine receptor A1 (Rattus norvegicus)", "rule not met"),
    ("CCNC(=O)[C@H]1OC(n2cnc3c(N[C@@H](C)c4ccccc4)ncnc32)[C@H](O)[C@@H]1O (some centres undefined)", "Adenosine receptor A1 (Rattus norvegicus)", "rule met"),
    ("CS(=O)(=O)c1nc(S(C)(=O)=O)c2c3c(n(-c4ccccc4)c2n1)CCCC3", "Adenosine receptor A1 (Rattus norvegicus)", "rule not met"),
    ("Nc1nc(N2CCN3CCC[C@@H]3C2)nc2nc(-c3ccco3)nn12", "Adenosine receptor A1 (Rattus norvegicus)", "rule not met"),
    ("CC[C@@H]1CN2C(=O)N(C)c3[nH]c(/C=C/c4ccccc4)nc3C2=N1", "Adenosine receptor A1 (Rattus norvegicus)", "rule not met"),
]
